- assayContext: in o-xylene, 335.05 K
quantityMeasured: solubility (mole fraction)
Output spec: single numeric token, no unit.

Problem: Can you look up the measured solubility (mole fraction) of `COc1cc(Cl)c(OC)cc1N` for me?
Solution: 0.0816

* * *

- assayContext: in toluene, 277.65 K
quantityMeasured: solubility (mole fraction)

Problem: Data request, read-out solubility (mole fraction), for `COc1cc(Cl)c(OC)cc1N`
Solution: 0.0065

* * *

- assayContext: in p-xylene, 325.25 K
quantityMeasured: solubility (mole fraction)
Note: the reply should be a number with no unit written.

Problem: # lookup: solubility (mole fraction) of `COc1cc(Cl)c(OC)cc1N`
Solution: 0.0447

* * *

- assayContext: in m-xylene, 315.45 K
quantityMeasured: solubility (mole fraction)
# answer = number (no unit)

Problem: Name the reported solubility (mole fraction) value associated with the compound `COc1cc([N+](=O)[O-])c(OC)cc1Cl`
Solution: 0.0305

* * *

- assayContext: in ethanol, 276.95 K
quantityMeasured: solubility (mole fraction)
Number, no unit, nothing else.

Problem: Tell me the measured solubility (mole fraction) of `COc1cc([N+](=O)[O-])c(OC)cc1Cl` , please.
Solution: 0.00042

* * *

- assayContext: in ethanol, 281.05 K
quantityMeasured: solubility (mole fraction)
Just the number, please.

Problem: Can you look up the measured solubility (mole fraction) of `COc1cc([N+](=O)[O-])c(OC)cc1Cl` for me?
Solution: 0.000522

* * *

- assayContext: in methanol, 303.35 K
quantityMeasured: solubility (mole fraction)
Write the value as a bare number.

Problem: solubility (mole fraction) for `COc1cc(Cl)c(OC)cc1N` ?
Solution: 0.00852

* * *

- assayContext: in p-xylene, 301.95 K
quantityMeasured: solubility (mole fraction)
// return just the number, without any unit appended

Problem: Requested field: solubility (mole fraction). Item: `COc1cc([N+](=O)[O-])c(OC)cc1Cl`
Solution: 0.0198

* * *

- assayContext: in toluene, 293.05 K
quantityMeasured: solubility (mole fraction)
The answer should be a number; do not append a unit.

Problem: Item under review: `COc1cc([N+](=O)[O-])c(OC)cc1Cl` . Reported solubility (mole fraction)?
Solution: 0.0178

* * *

- assayContext: in p-xylene, 324.65 K
quantityMeasured: solubility (mole fraction)
Answer with a number only.

Problem: Please give the measured solubility (mole fraction) for this molecule: `COc1cc([N+](=O)[O-])c(OC)cc1Cl`
Solution: 0.0454

* * *

- assayContext: in m-xylene, 296.25 K
quantityMeasured: solubility (mole fraction)

Problem: I'd like to know its solubility (mole fraction). The compound in question is `COc1cc(Cl)c(OC)cc1N`
Solution: 0.012

* * *

- assayContext: in m-xylene, 300.75 K
quantityMeasured: solubility (mole fraction)
// print number alone

Problem: Requested read-out: solubility (mole fraction). Entry: `COc1cc([N+](=O)[O-])c(OC)cc1Cl`
Solution: 0.0178

* * *

- assayContext: in methanol, 329.05 K
quantityMeasured: solubility (mole fraction)
Provide a numeric answer; units are not to be included.

Problem: I am curious: what solubility (mole fraction) value has been reported for `COc1cc([N+](=O)[O-])c(OC)cc1Cl` ?
Solution: 0.00464

* * *

- assayContext: in methanol, 301.75 K
quantityMeasured: solubility (mole fraction)

Problem: I'd like to know its solubility (mole fraction). The compound in question is `COc1cc([N+](=O)[O-])c(OC)cc1Cl`
Solution: 0.00131

* * *

- assayContext: in m-xylene, 332.35 K
quantityMeasured: solubility (mole fraction)
Would you mind answering with just the numeric figure?

Problem: Any idea what solubility (mole fraction) was measured for `COc1cc(Cl)c(OC)cc1N` ?
Solution: 0.0669

* * *

- assayContext: in toluene, 335.35 K
quantityMeasured: solubility (mole fraction)
Output: the number by itself.

Problem: # input compound: `COc1cc(Cl)c(OC)cc1N` ; wanted: its solubility (mole fraction)
Solution: 0.104

* * *

- assayContext: in toluene, 287.85 K
quantityMeasured: solubility (mole fraction)
// keep it numeric: no unit symbol after the value

Problem: Find the recorded solubility (mole fraction) belonging to `COc1cc([N+](=O)[O-])c(OC)cc1Cl` and report it.
Solution: 0.0145

* * *

- assayContext: in toluene, 323.45 K
quantityMeasured: solubility (mole fraction)
// print number alone

Problem: I am curious: what solubility (mole fraction) value has been reported for `COc1cc([N+](=O)[O-])c(OC)cc1Cl` ?
Solution: 0.052

* * *

- assayContext: in m-xylene, 283.15 K
quantityMeasured: solubility (mole fraction)
Respond numerically, and do not add a unit to the figure.

Problem: Data request, read-out solubility (mole fraction), for `COc1cc([N+](=O)[O-])c(OC)cc1Cl`
Solution: 0.00872

* * *

- assayContext: in methanol, 313.45 K
quantityMeasured: solubility (mole fraction)
Lab note: jot down the number only; don't add units.

Problem: Endpoint output: solubility (mole fraction) of `COc1cc(Cl)c(OC)cc1N` . Value?
Solution: 0.0134

* * *

- assayContext: in o-xylene, 278.25 K
quantityMeasured: solubility (mole fraction)
// print number alone

Problem: Which value of solubility (mole fraction) has been reported for `COc1cc(Cl)c(OC)cc1N` in the records?
Solution: 0.0058

* * *

- assayContext: in toluene, 328.95 K
quantityMeasured: solubility (mole fraction)
I'd appreciate a reply containing only the number, no unit.

Problem: Query (compound): `COc1cc(Cl)c(OC)cc1N` ; field requested: solubility (mole fraction)
Solution: 0.0761

* * *

- assayContext: in ethanol, 340.45 K
quantityMeasured: solubility (mole fraction)
Reply with just the number.

Problem: I am curious: what solubility (mole fraction) value has been reported for `COc1cc([N+](=O)[O-])c(OC)cc1Cl` ?
Solution: 0.00921

* * *

- assayContext: in ethanol, 321.55 K
quantityMeasured: solubility (mole fraction)
Respond using a number only.

Problem: Request the reported solubility (mole fraction) associated with `COc1cc(Cl)c(OC)cc1N`
Solution: 0.0201

* * *

- assayContext: in m-xylene, 295.35 K
quantityMeasured: solubility (mole fraction)
Lab note: record the figure alone, no unit after it.

Problem: I have this compound here, `COc1cc([N+](=O)[O-])c(OC)cc1Cl` , and I need its recorded solubility (mole fraction).
Solution: 0.0146

* * *

- assayContext: in ethanol, 286.45 K
quantityMeasured: solubility (mole fraction)
Response field accepts a number only; no unit should be typed.

Problem: Need solubility (mole fraction), item `COc1cc(Cl)c(OC)cc1N`
Solution: 0.00386

* * *

- assayContext: in p-xylene, 317.55 K
quantityMeasured: solubility (mole fraction)

Problem: Which measured solubility (mole fraction) value corresponds to `COc1cc([N+](=O)[O-])c(OC)cc1Cl` ?
Solution: 0.0347

* * *

- assayContext: in m-xylene, 312.15 K
quantityMeasured: solubility (mole fraction)
Could you respond with only the numeric value?

Problem: Name the reported solubility (mole fraction) value associated with the molecule `COc1cc([N+](=O)[O-])c(OC)cc1Cl`
Solution: 0.0272

* * *

- assayContext: in toluene, 290.05 K
quantityMeasured: solubility (mole fraction)
Give a plain numeric answer without units written out.

Problem: Fill blank: measured solubility (mole fraction) of the compound `COc1cc(Cl)c(OC)cc1N` is ____.
Solution: 0.0126

* * *

- assayContext: in toluene, 283.85 K
quantityMeasured: solubility (mole fraction)

Problem: For the compound `COc1cc([N+](=O)[O-])c(OC)cc1Cl` , what solubility (mole fraction) is on record?
Solution: 0.0122

* * *

- assayContext: in ethanol, 288.25 K
quantityMeasured: solubility (mole fraction)
Answer field: number only, no words.

Problem: Please look up its solubility (mole fraction): `COc1cc([N+](=O)[O-])c(OC)cc1Cl`
Solution: 0.000757

* * *

- assayContext: in ethanol, 331.55 K
quantityMeasured: solubility (mole fraction)
Number, no unit, nothing else.

Problem: Given `COc1cc(Cl)c(OC)cc1N` , state its recorded solubility (mole fraction).
Solution: 0.0344

* * *

- assayContext: in methanol, 299.85 K
quantityMeasured: solubility (mole fraction)
Give only the figure.

Problem: I would be grateful if you could share the reported solubility (mole fraction) for `COc1cc(Cl)c(OC)cc1N` .
Solution: 0.00734

* * *

- assayContext: in p-xylene, 291.65 K
quantityMeasured: solubility (mole fraction)
Format: numeric value only, no unit, no commentary.

Problem: Given the compound `COc1cc(Cl)c(OC)cc1N` , what is its reported solubility (mole fraction)?
Solution: 0.00985

* * *

- assayContext: in m-xylene, 302.35 K
quantityMeasured: solubility (mole fraction)

Problem: # lookup: solubility (mole fraction) of `COc1cc(Cl)c(OC)cc1N`
Solution: 0.016

* * *

- assayContext: in m-xylene, 289.95 K
quantityMeasured: solubility (mole fraction)
Please reply with the value in numeric form only.

Problem: Find the recorded solubility (mole fraction) belonging to `COc1cc(Cl)c(OC)cc1N` and report it.
Solution: 0.00877

From: BigSolDB 2.1
